In this section we review reported branches per spheroid, LOC cells, 0.5 nM values for a set of binders.
# STUDY_TARGET: native human MET on living cells (human, UniProt P08581 25-1390)
# Sequence (P08581 25-1390): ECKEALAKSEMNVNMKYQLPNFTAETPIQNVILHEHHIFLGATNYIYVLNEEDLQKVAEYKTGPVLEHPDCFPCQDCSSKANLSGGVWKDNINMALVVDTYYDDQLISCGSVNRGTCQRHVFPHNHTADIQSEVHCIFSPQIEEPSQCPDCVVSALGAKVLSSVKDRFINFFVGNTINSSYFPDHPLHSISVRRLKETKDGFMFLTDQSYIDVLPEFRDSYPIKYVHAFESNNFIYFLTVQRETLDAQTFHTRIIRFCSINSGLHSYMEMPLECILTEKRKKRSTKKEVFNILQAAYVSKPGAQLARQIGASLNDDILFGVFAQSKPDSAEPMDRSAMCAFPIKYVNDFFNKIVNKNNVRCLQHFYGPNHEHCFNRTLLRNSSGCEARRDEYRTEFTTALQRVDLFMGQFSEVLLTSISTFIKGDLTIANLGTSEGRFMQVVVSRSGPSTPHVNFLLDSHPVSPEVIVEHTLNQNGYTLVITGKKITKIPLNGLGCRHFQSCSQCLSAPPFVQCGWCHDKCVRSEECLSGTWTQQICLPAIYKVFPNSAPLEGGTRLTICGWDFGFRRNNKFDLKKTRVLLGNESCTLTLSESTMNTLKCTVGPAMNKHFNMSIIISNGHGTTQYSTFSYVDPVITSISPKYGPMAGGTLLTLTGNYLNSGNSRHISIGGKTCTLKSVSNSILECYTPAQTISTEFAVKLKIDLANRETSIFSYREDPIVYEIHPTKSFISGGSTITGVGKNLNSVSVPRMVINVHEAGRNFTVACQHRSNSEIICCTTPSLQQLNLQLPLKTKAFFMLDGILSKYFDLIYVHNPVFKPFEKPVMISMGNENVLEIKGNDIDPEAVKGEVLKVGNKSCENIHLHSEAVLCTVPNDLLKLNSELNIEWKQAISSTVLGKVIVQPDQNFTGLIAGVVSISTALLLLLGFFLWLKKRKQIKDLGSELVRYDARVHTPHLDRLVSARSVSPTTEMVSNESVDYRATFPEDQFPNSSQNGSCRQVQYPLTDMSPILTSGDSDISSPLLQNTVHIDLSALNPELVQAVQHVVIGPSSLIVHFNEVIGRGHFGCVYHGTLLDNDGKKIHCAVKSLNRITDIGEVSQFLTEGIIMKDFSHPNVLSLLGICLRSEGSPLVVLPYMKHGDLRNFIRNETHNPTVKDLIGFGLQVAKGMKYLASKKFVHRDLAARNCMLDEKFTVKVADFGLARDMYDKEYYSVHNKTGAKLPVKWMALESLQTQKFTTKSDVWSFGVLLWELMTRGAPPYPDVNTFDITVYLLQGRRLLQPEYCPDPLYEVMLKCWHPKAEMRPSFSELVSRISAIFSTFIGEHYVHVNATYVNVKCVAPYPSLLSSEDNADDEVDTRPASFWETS
# TEST: cell-based or functional assay
Express it in branches; write the number only.

// below: answered binders
BINDER: 72F8 chimeric llama-human IgG1 mAb (antibody, V domains shown, llama VH on human IgG1 CH1-CH2-CH3, llama VL on human lambda CL) VH: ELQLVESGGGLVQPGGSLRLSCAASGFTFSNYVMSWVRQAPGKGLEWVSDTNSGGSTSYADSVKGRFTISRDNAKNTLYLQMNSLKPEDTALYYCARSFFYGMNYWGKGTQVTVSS VL: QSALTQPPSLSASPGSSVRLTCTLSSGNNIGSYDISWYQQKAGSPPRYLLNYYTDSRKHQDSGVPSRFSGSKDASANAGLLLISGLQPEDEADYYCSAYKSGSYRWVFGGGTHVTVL
branches per spheroid, LOC cells, 0.5 nM, branches: 9
//
BINDER: 71D6 chimeric llama-human IgG1 mAb (antibody, V domains shown, llama VH on human IgG1 CH1-CH2-CH3, llama VL on human lambda CL) VH: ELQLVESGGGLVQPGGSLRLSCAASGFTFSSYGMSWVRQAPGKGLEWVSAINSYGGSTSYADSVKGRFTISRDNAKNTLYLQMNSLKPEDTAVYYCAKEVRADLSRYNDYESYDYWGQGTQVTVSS VL: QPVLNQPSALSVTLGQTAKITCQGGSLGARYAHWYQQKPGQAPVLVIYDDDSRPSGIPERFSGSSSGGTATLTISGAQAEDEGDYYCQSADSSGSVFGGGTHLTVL
branches per spheroid, LOC cells, 0.5 nM, branches: 29

Consider the additional binder presented here.
get_value(item= 71A3 chimeric llama-human IgG1 mAb (antibody, V domains shown, llama VH on human IgG1 CH1-CH2-CH3, llama VL on human lambda CL) VH: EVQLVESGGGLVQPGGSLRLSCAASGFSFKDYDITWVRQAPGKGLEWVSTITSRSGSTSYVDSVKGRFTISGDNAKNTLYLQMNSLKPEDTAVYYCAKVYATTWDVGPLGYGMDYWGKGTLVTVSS VL: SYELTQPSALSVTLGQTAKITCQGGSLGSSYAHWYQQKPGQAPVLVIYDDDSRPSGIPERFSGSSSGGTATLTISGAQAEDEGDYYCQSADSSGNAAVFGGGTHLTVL , readout=branches per spheroid, LOC cells, 0.5 nM) returns 24
